FYI, the data here is from patent US6358927B1.

Some substances, each annotated with its measured Pheromone content Z11-16:Ald ng/gland ± SE.
system: Heliothis peltigera; test: Pheromonotropic bioassay: peptide injected into females, pheromone content (Z11-16:Ald) of the gland measured; format: in vivo; details: C-terminally free acid peptides, 10 pmol, in the presence of protease inhibitors for 2 hours

Return reported Pheromone content Z11-16:Ald ng/gland ± SE; argument: H-Pro-Ala^10-Asp-Gln-Glu-Met-Tyr-Arg-Gln-Asp-Pro-Glu^20-Gln-Ile-Asp-Ser-Arg-Thr-Lys-Tyr-Phe-Ser^30-Pro-Arg-Leu^23-COOH (H-PADQEMYRQDPEQIDSRTKYFSPRL-OH) [PBAN (9-33) COOH] <1 ng/gland

---

test system: Heliothis peltigera; test: Pheromonotropic bioassay: peptide injected into females, pheromone content (Z11-16:Ald) of the gland measured; assay type: in vivo; details: Dose of 10 pmol; injected in phosphate buffer to 3.5-4.5 days old females during daylight for two hours
READOUT KIND: Pheromone content Z11-16:Ald ng/gland ± SE

Examples with their reported Pheromone content Z11-16:Ald ng/gland ± SE follow.
{"columns": ["SUBSTANCE", "RESULT"],
 "data": [
  ["H-Gln-Asp-Pro-Glu^20-Gln-Ile-Asp-Ser-Arg-Thr-Lys-Tyr-Phe-Ser^30-Pro-Arg-Leu^33-NH2 [PBAN (17-33) NH2]", "196.9 ± 40.7 a′ ng/gland"],
  ["H-Glu-Met-Tyr-Arg-Gln-Asp-Pro-Glu^20-Gln-Ile-Asp-Ser-Arg-Thr-Lys-Tyr-Phe-Ser^30-Pro-Arg-Leu^33-NH2 [PBAN (13-33) NH2]", "180.2 ± 47.3 a′ ng/gland"],
  ["H-Pro-Glu^20-Gln-Ile-Asp-Ser-Arg-Thr-Lys-Tyr-Phe-Ser^30-Pro-Arg-Leu^33-NH2 [PBAN (19-33) NH2]", "133.8 ± 15.7 b′ ng/gland"],
  ["H-Leu^1-Ser-Asp-Asp-Met-Pro-Ala-Thr-Pro-Ala^10-Asp-Gln-Glu-Met-Tyr-Arg-Gln-Asp-Pro-Glu^20-Gln-Ile-Asp-Ser-Arg-Thr-Lys-Tyr-Phe-Ser^30-Pro-Arg-Leu^33-NH2 [PBAN (1-33) NH2, reference compound]", "225.2 ± 51.4 a′ ng/gland"],
  ["H-Pro-Ala^10-Asp-Gln-Glu-Met-Tyr-Arg-Gln-Asp-Pro-Glu^20-Gln-Ile-Asp-Ser-Arg-Thr-Lys-Tyr-Phe-Ser^30-Pro-Arg-Leu^33-NH2 [PBAN (9-33) NH2]", "168.0 ± 9.2 a′ ng/gland"],
  ["H-Tyr-Phe-Ser^30-Pro-Arg-Leu^33-NH2 (H-YFSPRL-NH2) [PBAN (28-33) NH2]", "12.7 ± 4.9 c′ ng/gland"]
]}

Return reported Pheromone content Z11-16:Ald ng/gland ± SE; argument: H-Thr-Lys-Tyr-Phe-Ser^30-Pro-Arg-Leu^33-NH2 (H-TKYFSPRL-NH2) [PBAN (26-33) NH2] 12.2 ± 3.1 c′ ng/gland

---

Some substances, each annotated with its measured Inhibition (% of cont).
system: Heliothis peltigera; assay: Inhibition of pheromonotropic activity evoked by PBAN (1-33) NH2 (co-injection of free acid fragments or antiserum); type: in vivo; conditions: free acid fragment at 10 pmol injected together with PBAN (1-33) NH2 at 1 pmol
Units required after the number.

{"columns": ["SUBSTANCE", "Inhibition (% of cont)"],
 "data": [
  ["H-Pro-Ala^10-Asp-Gln-Glu-Met-Tyr-Arg-Gln-Asp^18-COOH (H-PADQEMYRQD-OH) [PBAN (9-18) COOH]", "35%"]
]}

Quick check: Inhibition (% of cont) on Heliothis peltigera, item H-Leu^1-Ser-Asp-Asp-Met-Pro-Ala-Thr-Pro-Ala^10-Asp-Gln-Glu-Met-Tyr-Arg-Gln-Asp-Pro-Glu^20-Gln-Ile-Asp-Ser-Arg-Thr-Lys-Tyr-Phe-Ser^30-Pro-Arg-Leu^33-COOH [PBAN (1-33) COOH] ? 0%

Quick check: Inhibition (% of cont) on Heliothis peltigera, item H-Pro-Glu^20-Gln-Ile-Asp-Ser-Arg-Thr-Lys-Tyr-Phe-Ser^30-Pro-Arg-Leu^33-COOH [PBAN (19-33) COOH] ? 27%

Quick check: Inhibition (% of cont) on Heliothis peltigera, item H-Pro-Ala^10-Asp-Gln-Glu-Met-Tyr-Arg-Gln-Asp-Pro-Glu^20-Gln-Ile-Asp-Ser-Arg-Thr-Lys-Tyr-Phe-Ser^30-Pro-Arg-Leu^23-COOH (H-PADQEMYRQDPEQIDSRTKYFSPRL-OH) [PBAN (9-33) COOH] ? 7%

---

Some substances, each annotated with its measured Pheromone content Z11-16:Ald ng/gland ± SE.
System: Heliothis peltigera
Experiment: Pheromonotropic bioassay: peptide injected into females, pheromone content (Z11-16:Ald) of the gland measured
Type: in vivo
Details: C-terminally free acid peptides, 10 pmol, in the presence of protease inhibitors for 2 hours
Description: Structure activity studies were performed by an examination of the pheromonotropic activity of synthetic Hez-PAN (PBAN 1-33 NH2) and ten shorter fragments derived from its N- and C-terminal regions. Activity was tested on Heliothis peltigera using a bioassay as described by Gazit et al; (Insect Biochem., 20, 853-858, 1990). […] Pheromonotropic activity was determined by injecting the peptides, dissolved in buffer phosphate to 3.5-4.5 days old females during daylight for two hours. […]

Examples with their reported Pheromone content Z11-16:Ald ng/gland ± SE follow.
{"columns": ["SUBSTANCE", "RESULT"],
 "data": [
  ["H-Pro-Glu^20-Gln-Ile-Asp-Ser-Arg-Thr-Lys-Tyr-Phe-Ser^30-Pro-Arg-Leu^33-COOH [PBAN (19-33) COOH]", "<1 ng/gland"],
  ["H-Leu^1-Ser-Asp-Asp-Met-Pro-Ala-Thr-Pro-Ala^10-Asp-Gln-Glu-Met-Tyr-Arg-Gln-Asp-Pro-Glu^20-Gln-Ile-Asp-Ser-Arg-Thr-Lys-Tyr-Phe-Ser^30-Pro-Arg-Leu^33-COOH [PBAN (1-33) COOH]", "1.4 ± 0.76 ng/gland"]
]}

Return reported Pheromone content Z11-16:Ald ng/gland ± SE; argument: H-Pro-Ala^10-Asp-Gln-Glu-Met-Tyr-Arg-Gln-Asp^18-COOH (H-PADQEMYRQD-OH) [PBAN (9-18) COOH] <1 ng/gland
